Biological target: T1, LILRB2-ECD-HIS (SinoBiological Cat #: 14132-H02H) (human, UniProt Q8N423 22-460)
T1 construct: Bought protein; also called monomeric antigen LILRB2-ECD-HIS; not shown: His tag
T1 sequence (Q8N423 other isoform, or with tags, fused parts or gaps H02H H02H): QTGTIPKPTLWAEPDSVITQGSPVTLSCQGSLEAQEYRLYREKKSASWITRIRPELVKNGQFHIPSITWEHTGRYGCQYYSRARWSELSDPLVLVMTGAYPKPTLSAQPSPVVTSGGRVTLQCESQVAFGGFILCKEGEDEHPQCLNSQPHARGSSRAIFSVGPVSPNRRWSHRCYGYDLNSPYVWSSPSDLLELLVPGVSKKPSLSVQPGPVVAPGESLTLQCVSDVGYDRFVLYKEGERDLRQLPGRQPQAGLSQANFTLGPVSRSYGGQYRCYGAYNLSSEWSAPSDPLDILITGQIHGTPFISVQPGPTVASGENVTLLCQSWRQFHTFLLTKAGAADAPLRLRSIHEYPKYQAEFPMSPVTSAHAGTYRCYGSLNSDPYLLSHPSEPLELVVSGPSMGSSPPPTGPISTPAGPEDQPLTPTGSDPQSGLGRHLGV
Experiment: SPR (Carterra), LILRB2-ECD-his
ATTRIBUTE_MEASURED: koff (s⁻¹)
Numeric answer only, unit s⁻¹ assumed.

BINDER	koff / s⁻¹
D2M002-026 (antibody, V domains shown, Hit; also called clone #26) VH: QVQLQQPGAELMKPGASVKISCKATGYTFSSYWIEWVKQRPGHGLEWIGEILPGDGSTNYNAKFKGQATFTADTSSNTAYMQFSSLTSEDSAVYYCARSGAGGYDSGAFAYWGQGTLVTVSS VL: DIVLTQSPASLAVSLGQRATISCRASESVDTYGNSFMHWYQQKPGQPPKLLVYRTSNLESGIPARFSGSGSGTDFTLTINPVEADDVATYYCQQSNEDPWTFGGGTKLEIK	4.53e-05

Input D2M002-126 (antibody, V domains shown, Humanized and optimized variant of D2M002-026) VH: QVQLVQSGAEVKKPGASVKVSCKASGYTFTSYWIEWVRQAPGQGLEWIGEILPGDESTNYNAKFKGRVTFTTDTSTSTAYMELRSLRSDDTAVYYCARSGAGGYDSGAFAYWGQGTLVTVSS VL: AIQLTQSPSSLSASVGDRVTITCRASESVDTYGNSFMHWYQQKPGKAPKLLVYRTSNLESGVPSRFSGSGSGTDFTLTISSLQPEDFATYYCQQSNEDPWTFGGGTKVEIK . Output koff: 5.89e-05

Input D2M002-103 (antibody, V domains shown, also called P212_F01) VH: QVQLVQSGAEVKKPGASVKVSCKASGYTFTRYVMHWVRQAPGQRLEWMGWINPNNEETKYSQKFKGRVTLTRDTSASTAYMELSSLRSEDTAVYYCARADLEILPYYDHARYAMDYWGQGTLVTVSS VL: DIQMTQSPSSVSASVGDRVTITCRASENIYSHLAWYQQKPGKAPKLLVYNAKSLQSGVPSRFSGSGSGTDFTLTISSLQPEDFATYYCQHFWSTPPTFGGGTKVEIK . Output koff: 0.000129

Input D2M002-002 (antibody, V domains shown, Hit from immunised mice; also called clone #2; anti-LILRB1/2 clone #2) VH: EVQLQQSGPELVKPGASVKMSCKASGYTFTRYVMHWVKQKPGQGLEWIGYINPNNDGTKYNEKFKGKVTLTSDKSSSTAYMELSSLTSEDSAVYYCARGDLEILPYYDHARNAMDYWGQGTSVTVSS VL: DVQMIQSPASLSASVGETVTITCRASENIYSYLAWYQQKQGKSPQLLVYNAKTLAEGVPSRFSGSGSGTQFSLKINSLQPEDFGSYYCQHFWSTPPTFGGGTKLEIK . Output koff: 0.0002
